Measured Anti-CD28 Fab signal in the presence of CD28 of individual entries
Biological target: Anti-CD28 Fab (SEQ ID NOs: 202, 203)
Sequence (VH, as listed by the source, chain 1 of 2): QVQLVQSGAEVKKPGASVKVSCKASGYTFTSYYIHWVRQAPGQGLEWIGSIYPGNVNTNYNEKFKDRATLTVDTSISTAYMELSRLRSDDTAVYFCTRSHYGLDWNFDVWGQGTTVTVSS
Sequence (VL, as listed by the source, chain 2 of 2): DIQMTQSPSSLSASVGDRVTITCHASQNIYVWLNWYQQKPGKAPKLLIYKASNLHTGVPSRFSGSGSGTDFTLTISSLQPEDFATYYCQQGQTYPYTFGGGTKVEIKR
Experiment: phage binding ELISA on captured Fab, competitor CD28 antigen;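 also: clonal phage supernatant binding in wells preincubated with CD28 antigen in blocking buffer, detected by HRP-conjugated anti-M13 antibody ELISA, compared with blocking buffer alone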
Format: numeric value only, no unit, no commentary.

Example cases with answers are listed next.
BINDER | REPORTED MEASUREMENT
YCEGHIGDYIAKCL [Phage-857] | 0.36
YCDGHLPRFMVKCL [Phage-839] | 0.07
YCDGHSQIYMSKCL [Phage-882] | 0.06
YCEGHTQAYLAKCL [Phage-792] | 0.1
YCDGHSSAYIDKCL [Phage-752] | 0.06
YCDGHLPRYMEKCM [Phage-751] | 0.06
YCDGHDARYMTKCL [Phage-756] | 0.09

// next item, Anti-CD28 Fab signal in the presence of CD28 requested
Qu. Given YCEGHKKEYMLKCL [Phage-863] , state its recorded Anti-CD28 Fab signal in the presence of CD28.
Ans. 0.08
